// data source = patent US10130611B2

- TGT: interaction between KRS and laminin receptor (67LR) (Homo sapiens, UniProt Q15046)
- Construct: expressed in transfected cells; host or cells: yeast EGY/SH cells
- Sequence (Q15046 whole entry): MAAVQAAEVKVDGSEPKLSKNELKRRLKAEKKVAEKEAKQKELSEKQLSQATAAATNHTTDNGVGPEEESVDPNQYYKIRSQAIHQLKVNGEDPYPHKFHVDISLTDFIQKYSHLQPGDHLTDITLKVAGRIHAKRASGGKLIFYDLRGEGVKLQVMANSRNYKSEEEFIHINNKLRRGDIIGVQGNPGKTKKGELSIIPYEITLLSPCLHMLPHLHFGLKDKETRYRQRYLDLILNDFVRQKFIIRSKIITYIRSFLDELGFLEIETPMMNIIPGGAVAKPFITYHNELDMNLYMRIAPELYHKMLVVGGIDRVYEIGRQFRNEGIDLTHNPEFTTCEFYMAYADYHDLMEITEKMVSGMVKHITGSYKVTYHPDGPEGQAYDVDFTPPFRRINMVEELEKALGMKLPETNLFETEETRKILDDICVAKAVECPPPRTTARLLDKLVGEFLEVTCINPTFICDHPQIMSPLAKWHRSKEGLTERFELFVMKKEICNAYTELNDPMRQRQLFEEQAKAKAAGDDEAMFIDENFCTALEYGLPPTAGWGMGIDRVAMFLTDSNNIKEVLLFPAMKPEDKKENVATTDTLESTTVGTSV
- ASSAY COMMENT: Yeast two hybrid growth assay, LexA-KRS/B42-LR pair
- Format: cell-based
- STUDY CONDITIONS: growth inhibition of yeast EGY/SH cells with LexA-KRS/B42-LR vs control; 1 μl of 10 mg/ml compound per well, 6 days, absorbance 540 nm; read-out: Inhibition rate(%)
Criterion: inhibition at 10000 µg/mL (stock) meeting or surpassing 50%. Met: True. Not met: False.

Prompt: Check if inhibition at 10000 µg/mL (stock) >= 50% (inclusive). Item: O=C(Nc1nc2cc([N+](=O)[O-])ccc2o1)c1ccccc1 [Compound of formula 9, N-(5-Nitro-benzooxazol-2-yl)-benzamide]
Response: False

Prompt: Tell me whether inhibition at 10000 µg/mL (stock) is at least 50% here: O=C(Nc1nc2ccc([N+](=O)[O-])cc2s1)c1ccc(C(F)(F)F)cc1 [Compound of formula 12]
Response: True

Prompt: Decide: inhibition at 10000 µg/mL (stock) of Fc1ccc(CNCc2c[nH]c3ccc(F)cc23)c(Cl)c1 [Compound of formula 17] >= 50%?
Response: False

Prompt: Test whether the compound CCC(C(=O)O)n1/c(=N/C(=O)c2ccc(C)cc2)sc2ccccc21 (stereo not drawn) [Compound of formula 15] records inhibition at 10000 µg/mL (stock) of 50% or higher.
Response: True

Prompt: hey, is inhibition at 10000 µg/mL (stock) for this one >= 50%? O=[N+]([O-])c1ccc2oc(Nc3ccc(/N=N/c4ccccc4)cc3)nc2c1 [Compound of formula 7]
Response: False

Prompt: Item Clc1ccc2oc(Nc3ccccc3)nc2c1 [Compound of formula 4, (5-Chloro-benzooxazol-2-yl)-phenyl-amine] with inhibition at 10000 µg/mL (stock) of 50% or above?
Response: True

Prompt: Is reported inhibition at 10000 µg/mL (stock) greater than or equal to 50% here: Cc1ccc2oc(-c3ccccc3OCC(=O)O)nc2c1 [Compound of formula 13]
Response: True

Prompt: Hi team, for COc1cccc(OC)c1-c1nc2ccccc2s1 [Compound of formula 16, 2-(2,6-Dimethoxy-phenyl)-benzothiazole] , is the recorded inhibition at 10000 µg/mL (stock) at or above 50%?
Response: False

Prompt: Is the recorded value of inhibition at 10000 µg/mL (stock) equal to or greater than 50% for this compound? COc1ccc2nc(NC(=O)c3ccccc3)oc2c1 [Compound of formula 2, N-(6-Methoxy-benzooxazol-2-yl)-benzamide]
Response: True

Prompt: I'd appreciate it if you could say whether COc1ccc2oc(NC(=O)c3ccccc3)nc2c1 [Compound of formula 10, N-(5-Methoxy-benzooxazol-2-yl)-benzamide] has inhibition at 10000 µg/mL (stock) at least equal to 50%.
Response: True

Prompt: Say whether Clc1ccc2oc(Nc3ccc(Cl)c(Cl)c3)nc2c1 [Compound of formula 6] shows inhibition at 10000 µg/mL (stock) of 50% or more.
Response: True

Prompt: Hi, just wondering whether O=C(Nc1nc2ccccc2o1)c1ccccc1 [Compound of formula 8, N-Benzooxazol-2-yl-benzamide] shows inhibition at 10000 µg/mL (stock) of 50% or higher.
Response: False

Prompt: Tell me whether inhibition at 10000 µg/mL (stock) is at least 50% here: CCc1ccc(Nc2nc3cc(Cl)ccc3o2)cc1 [Compound of formula 5]
Response: False
